Value source: PubChem BioAssay (NCI)

Below, each entry is listed with its recorded GI50.
- Test system: CAKI-1 renal
- test_protocol: NCI tumour cell line growth inhibition, 48 h
parameter_measured: GI50

[
  {
    "molecule_smiles": "Cc1ccccc1Nc1cc(O)c2c(=O)cc(-c3ccccc3)oc2c1",
    "target_system": "CAKI-1 renal",
    "value": "2770 nM"
  },
  {
    "molecule_smiles": "COc1ccc(-c2cnc(-c3ccncc3-c3cccc(OC)c3)o2)cc1",
    "target_system": "CAKI-1 renal",
    "value": "866 nM"
  },
  {
    "molecule_smiles": "C[C@]12CCc3nc(Nc4ccc(O)cc4)sc3C1=CC[C@@H]1[C@@H]2CC[C@]2(C)/C(=N/NC(N)=S)CC[C@@H]12",
    "target_system": "CAKI-1 renal",
    "value": "1590 nM"
  }
]
